Test system: HEK293T non-tumor derived cell line
ASSAY_TEXT: MTT cell proliferation assay
Format: cell-based
REPORTED_CONDITIONS: Homo sapiens, HEK-293T
From the text: CCRF-CEM acute lymphoblastic leukemia (ALL) and K562 chronic myeloid leukemia (CML) cells and their MDR P-glycoprotein overexpressing variants, CEM/ADR5000 and Lucena 1, respectively, were a generous gift from Dr. T. Efferth (Institute of Pharmacy and Biochemistry, Johannes Gutenberg University, Mainz, Germany) and Dr. V. Rumjanek (Instituto de Bioquímica Médica Leopoldo de Meis, Universidade Federal do Rio de Janeiro, Rio de Janeiro, Brazil), respectively. […]
pIC50: −log10 of the molar value.
OBSERVED_PROPERTY: pIC50

MOLECULE: O=C(/C=C/c1ccccc1)c1ccc(O)cc1O [Compound 1, 2′,4′-dihydroxychalcone]
TEST_RESULT: 4.17

###

Where a name gives a salt, the structure may show the parent alone.
Escherichia coli (ATCC 25922): reported MIC for various compounds.
OBSERVED_PROPERTY: MIC (µg/mL)

COMPOUND: O=C1C[C@@H](c2ccccc2)Oc2cc(O)cc(O)c21
OBSERVED_PROPERTY: MIC
UNIT_ABBREV: µg/mL
QUALIFIER_SYMBOL: =
TEST_RESULT: 500
--
COMPOUND: COc1cc(C2CC(=O)c3ccc(O)cc3O2)ccc1O (stereo not drawn) [Compound 5, 7,4′-dihydroxy-3′-methoxyflavanone]
OBSERVED_PROPERTY: MIC
UNIT_ABBREV: µg/mL
QUALIFIER_SYMBOL: >
TEST_RESULT: 500
--
COMPOUND: CC[C@H]1OC(=O)[C@H](C)[C@@H](O[C@H]2C[C@@](C)(OC)[C@@H](O)[C@H](C)O2)[C@H](C)[C@@H](O[C@@H]2O[C@H](C)C[C@H](N(C)C)[C@H]2O)[C@](C)(O)C[C@@H](C)C(=O)[C@H](C)[C@@H](O)[C@]1(C)O [Erythromycin, erythromycin, reference compound]
OBSERVED_PROPERTY: MIC
UNIT_ABBREV: µg/mL
QUALIFIER_SYMBOL: =
TEST_RESULT: 125
--
COMPOUND: O=C(/C=C/c1ccc(O)cc1)c1ccc(O)cc1O
OBSERVED_PROPERTY: MIC
UNIT_ABBREV: µg/mL
QUALIFIER_SYMBOL: >
TEST_RESULT: 500
--
COMPOUND: O=C(/C=C/c1ccccc1)c1ccc(O)cc1O [Compound 1, 2′,4′-dihydroxychalcone]
OBSERVED_PROPERTY: MIC
UNIT_ABBREV: µg/mL
QUALIFIER_SYMBOL: =
TEST_RESULT: 250
--
COMPOUND: CNC(C)C1CCC(N)C(OC2C(N)CC(N)C(OC3OCC(C)(O)C(NC)C3O)C2O)O1 (stereo not drawn) [Gentamicin, Gentamicin sulfate, reference compound]
OBSERVED_PROPERTY: MIC
UNIT_ABBREV: µg/mL
QUALIFIER_SYMBOL: =
TEST_RESULT: 4

###

Tested on: Enterococcus faecalis (ATCC 29212)
ASSAY_TEXT: Agar dilution MIC / MBC
Format: cell-based
REPORTED_CONDITIONS: ATCC29212, E. faecalis, value in parentheses
Counter-ions that a name gives are not always drawn.
Known MBC of a selection of compounds
OBSERVED_PROPERTY: MBC (µg/mL)

COMPOUND: O=C(/C=C/c1ccccc1)c1ccc(O)cc1O [Compound 1, 2′,4′-dihydroxychalcone]
OBSERVED_PROPERTY: MBC
QUALIFIER_SYMBOL: =
TEST_RESULT: 125

COMPOUND: COc1cc(C2CC(=O)c3ccc(O)cc3O2)ccc1O (stereo not drawn) [Compound 5, 7,4′-dihydroxy-3′-methoxyflavanone]
OBSERVED_PROPERTY: MBC
QUALIFIER_SYMBOL: >
TEST_RESULT: 500

COMPOUND: CNC(C)C1CCC(N)C(OC2C(N)CC(N)C(OC3OCC(C)(O)C(NC)C3O)C2O)O1 (stereo not drawn) [Gentamicin, Gentamicin sulfate, reference compound]
OBSERVED_PROPERTY: MBC
QUALIFIER_SYMBOL: =
TEST_RESULT: 10

COMPOUND: O=C1C[C@@H](c2ccccc2)Oc2cc(O)cc(O)c21
OBSERVED_PROPERTY: MBC
QUALIFIER_SYMBOL: =
TEST_RESULT: 125

COMPOUND: O=C(/C=C/c1ccc(O)cc1)c1ccc(O)cc1O
OBSERVED_PROPERTY: MBC
QUALIFIER_SYMBOL: >
TEST_RESULT: 500

COMPOUND: CC[C@H]1OC(=O)[C@H](C)[C@@H](O[C@H]2C[C@@](C)(OC)[C@@H](O)[C@H](C)O2)[C@H](C)[C@@H](O[C@@H]2O[C@H](C)C[C@H](N(C)C)[C@H]2O)[C@](C)(O)C[C@@H](C)C(=O)[C@H](C)[C@@H](O)[C@]1(C)O [Erythromycin, erythromycin, reference compound]
OBSERVED_PROPERTY: MBC
QUALIFIER_SYMBOL: =
TEST_RESULT: 30

###

Tested on: Staphylococcus aureus subsp. aureus (ATCC 6538)
ASSAY_TEXT: Agar dilution MIC / MBC
Assay type: cell-based
REPORTED_CONDITIONS: Staphylococcus aureus, ATCC6538; S. aureus; value in parentheses; read-out: MBC
Structures can show the parent of a compound that is named as a salt.
For each record, check the reported MBC: if it is below 60 µg/mL write MET, else write NOT MET.

COMPOUND: O=C(/C=C/c1ccc(O)cc1)c1ccc(O)cc1O [Compound 2, isoliquiritigenin]
ASSIGNED_CATEGORY: NOT MET

COMPOUND: O=C1C[C@@H](c2ccccc2)Oc2cc(O)cc(O)c21 [Compound 3, pinocembrin]
ASSIGNED_CATEGORY: NOT MET

COMPOUND: O=C(/C=C/c1ccccc1)c1ccc(O)cc1O [Compound 1, 2′,4′-dihydroxychalcone]
ASSIGNED_CATEGORY: MET

COMPOUND: CNC(C)C1CCC(N)C(OC2C(N)CC(N)C(OC3OCC(C)(O)C(NC)C3O)C2O)O1 (stereo not drawn) [Gentamicin, Gentamicin sulfate, reference compound]
ASSIGNED_CATEGORY: MET

COMPOUND: COc1cc(C2CC(=O)c3ccc(O)cc3O2)ccc1O (stereo not drawn) [Compound 5, 7,4′-dihydroxy-3′-methoxyflavanone]
ASSIGNED_CATEGORY: NOT MET

###

Tested on: Escherichia coli (ATCC 25922)
ASSAY_TEXT: Agar dilution MIC / MBC
Assay type: cell-based
REPORTED_CONDITIONS: ATCC25922, E. coli, value in parentheses
Structures can show the parent of a compound that is named as a salt.

COMPOUND: COc1cc(C2CC(=O)c3ccc(O)cc3O2)ccc1O (stereo not drawn) [Compound 5, 7,4′-dihydroxy-3′-methoxyflavanone]
UNIT_ABBREV: µg/mL
QUALIFIER_SYMBOL: >
MBC: 500

COMPOUND: O=C(/C=C/c1ccccc1)c1ccc(O)cc1O [Compound 1, 2′,4′-dihydroxychalcone]
UNIT_ABBREV: µg/mL
QUALIFIER_SYMBOL: =
MBC: 500

COMPOUND: CC[C@H]1OC(=O)[C@H](C)[C@@H](O[C@H]2C[C@@](C)(OC)[C@@H](O)[C@H](C)O2)[C@H](C)[C@@H](O[C@@H]2O[C@H](C)C[C@H](N(C)C)[C@H]2O)[C@](C)(O)C[C@@H](C)C(=O)[C@H](C)[C@@H](O)[C@]1(C)O [Erythromycin, erythromycin, reference compound]
UNIT_ABBREV: µg/mL
QUALIFIER_SYMBOL: >
MBC: 500

COMPOUND: O=C(/C=C/c1ccc(O)cc1)c1ccc(O)cc1O [Compound 2, isoliquiritigenin]
UNIT_ABBREV: µg/mL
QUALIFIER_SYMBOL: >
MBC: 500

COMPOUND: O=C1C[C@@H](c2ccccc2)Oc2cc(O)cc(O)c21 [Compound 3, pinocembrin]
UNIT_ABBREV: µg/mL
QUALIFIER_SYMBOL: =
MBC: 500

COMPOUND: CNC(C)C1CCC(N)C(OC2C(N)CC(N)C(OC3OCC(C)(O)C(NC)C3O)C2O)O1 (stereo not drawn) [Gentamicin, Gentamicin sulfate, reference compound]
UNIT_ABBREV: µg/mL
QUALIFIER_SYMBOL: =
MBC: 8

###

Test system: CML cells
ASSAY_TEXT: MTT assay, summary
Format: cell-based
REPORTED_CONDITIONS: Homo sapiens, read-out: IC50, range
Description: CCRF-CEM acute lymphoblastic leukemia (ALL) and K562 chronic myeloid leukemia (CML) cells and their MDR P-glycoprotein overexpressing variants, CEM/ADR5000 and Lucena 1, respectively, were a generous gift from Dr. T. Efferth (Institute of Pharmacy and Biochemistry, Johannes Gutenberg University, Mainz, Germany) and Dr. V. Rumjanek (Instituto de Bioquímica Médica Leopoldo de Meis, Universidade Federal do Rio de Janeiro, Rio de Janeiro, Brazil), respectively. […]
OBSERVED_PROPERTY: IC50

COMPOUND: O=C(/C=C/c1ccccc1)c1ccc(O)cc1O [Compound 1, 2′,4′-dihydroxychalcone]
OBSERVED_PROPERTY: IC50
TEST_RESULT: 27.5 to 30 µM
